biological target: T1, Human PCSK9 Alexa Fluor 647 (human, UniProt Q8NBP7 31-692, limits assumed, Alexa Fluor 647 label (site not stated)); test: TR-FRET competition: PCSK9-Alexa Fluor 647 vs LDLR ECD-Eu kryptate
T1 construct: Labelled tracer of the TR-FRET assay, 16 nM stock; also called proprotein convertase subtilisin/kexin type 9
T1 sequence (Q8NBP7 31-692 limits assumed): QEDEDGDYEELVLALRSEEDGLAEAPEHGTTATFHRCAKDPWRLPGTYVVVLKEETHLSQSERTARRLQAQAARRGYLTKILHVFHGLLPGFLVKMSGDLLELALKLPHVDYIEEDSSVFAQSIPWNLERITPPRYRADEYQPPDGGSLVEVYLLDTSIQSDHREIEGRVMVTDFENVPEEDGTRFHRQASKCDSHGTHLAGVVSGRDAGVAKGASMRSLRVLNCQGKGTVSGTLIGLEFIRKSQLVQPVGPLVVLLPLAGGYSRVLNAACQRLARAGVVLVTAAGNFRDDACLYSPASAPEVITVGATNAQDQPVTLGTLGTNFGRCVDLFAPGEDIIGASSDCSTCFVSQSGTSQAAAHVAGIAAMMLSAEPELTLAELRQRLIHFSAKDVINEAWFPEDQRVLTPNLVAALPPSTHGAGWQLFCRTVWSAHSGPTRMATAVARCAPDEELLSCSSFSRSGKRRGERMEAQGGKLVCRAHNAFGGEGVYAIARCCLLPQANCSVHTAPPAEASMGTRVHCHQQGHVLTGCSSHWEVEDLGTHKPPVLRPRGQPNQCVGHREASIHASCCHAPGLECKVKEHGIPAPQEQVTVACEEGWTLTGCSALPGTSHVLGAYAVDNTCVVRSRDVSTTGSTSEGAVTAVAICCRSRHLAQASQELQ
Bridge positions count the residues as written; N and C are the ends. Square brackets hold non-standard residues; d marks the D form. Bip = N[C@@H](Cc1ccc(-c2ccccc2)cc1)C(=O)O; NMeA = CN[C@@H](C)C(=O)O
Overview of reported IC50 across a group of binders:
Answer with a number only, understood to be in nM.

| binder | IC50, nM |
| --- | --- |
| {CH2CO}-FVNTTF[NMeA][Bip][NMeA]KAPCG-NH2 (thioether N-13; SMILES CC(C)[C@@H]1NC(=O)[C@H](Cc2ccccc2)NC(=O)CSC[C@@H](C(=O)NCC(N)=O)NC(=O)[C@@H]2CCCN2C(=O)[C@H](C)NC(=O)[C@H](CCCCN)NC(=O)[C@H](C)N(C)C(=O)[C@H](Cc2ccc(-c3ccccc3)cc2)NC(=O)[C@H](C)N(C)C(=O)[C@H](Cc2ccccc2)NC(=O)[C@H]([C@@H](C)O)NC(=O)[C@H]([C@@H](C)O)NC(=O)[C@H](CC(N)=O)NC1=O, also called 1-23; Ex. No. 1-23) [Ac*-F-V-N-T-T-F-(N-Me)A-B-(N-Me)A-K-A-P-C*-G-NH2] | 22 |

Now for a further binder.
May I ask what IC50 has been recorded for {CH2CO}-FENTTF[NMeA][Bip][NMeA]ASPCG-NH2 (thioether N-13; SMILES C[C@@H]1NC(=O)[C@H](C)N(C)C(=O)[C@H](Cc2ccc(-c3ccccc3)cc2)NC(=O)[C@H](C)N(C)C(=O)[C@H](Cc2ccccc2)NC(=O)[C@H]([C@@H](C)O)NC(=O)[C@H]([C@@H](C)O)NC(=O)[C@H](CC(N)=O)NC(=O)[C@H](CCC(=O)O)NC(=O)[C@H](Cc2ccccc2)NC(=O)CSC[C@@H](C(=O)NCC(N)=O)NC(=O)[C@@H]2CCCN2C(=O)[C@H](CO)NC1=O, also called 1-27; Ex. No. 1-27) [Ac*-F-E-N-T-T-F-(N-Me)A-B-(N-Me)A-A-S-P-C*-G-NH2] ?
410
